Data origin, for the record: the RepoRT retention time repository (doi:10.1007/s11356-017-9929-x)

assay-summary: RP, GL Sciences Inertsil ODS-4, 150 × 2.1 mm, 3 µm, 40 °C, 0.3 mL/min, estimated dead time 1.1 min; A: water + 5 mM ammonium acetate; B: methanol + 5 mM ammonium acetate; gradient (min/%B) 0/5 30/95 50/95
particulars: stereoisomer not certain
Each entry below lists one item and its recorded LC retention time value.
Unit min implied. Number only.

Recorded results for 6 molecules are shown here.
>>> measured_number("CCC1OC(=O)C(C)C(OC2CC(C)(OC)C(O)C(C)O2)C(C)C(OC2OC(C)CC(N(C)C)C2O)C(C)(OC)CC(C)C(=O)C(C)C(O)C1(C)O (configuration not stated)")
27.2
>>> measured_number("CNC(=O)N(C)c1nnc(C(C)(C)C)s1")
21.7
>>> measured_number("[2H]C([2H])([2H])NC(=O)ON=C(C)SC")
11.9
>>> measured_number("CSc1nc(NC(C)C)nc(NC(C)C)n1")
27.6
>>> measured_number("COC(=O)c1ccccc1S(=O)(=O)NC(=O)Nc1nc(C)nc(OC)n1")
13.9
>>> measured_number("COc1cc(NS(=O)(=O)c2ccc(N)cc2)ncn1")
11.8

input: Give a short answer stating reported LC retention time for CCNc1nc(NC(C)C)nc(SC)n1 .
output: 25.9

input: Give a short answer stating reported LC retention time for COc1cc(OC)nc(NC(=O)NS(=O)(=O)c2c(-c3nnn(C)n3)cnn2C)n1 .
output: 14.7

input: Give a short answer stating reported LC retention time for Cc1ccc(NC(=O)NC(C)(C)c2ccccc2)cc1 .
output: 26.7

input: Give a short answer stating reported LC retention time for COC(=O)c1ccccc1CS(=O)(=O)NC(=O)Nc1nc(OC)cc(OC)n1 .
output: 22.1

input: Give a short answer stating reported LC retention time for COc1cc(OC)nc(NC(=O)NS(=O)(=O)c2cc(NC=O)ccc2C(=O)N(C)C)n1 .
output: 15.9

input: Give a short answer stating reported LC retention time for NC1=NCC2c3ccccc3Cc3ccccc3N12 (configuration not stated) .
output: 20.1

input: Give a short answer stating reported LC retention time for COC(=O)c1sccc1S(=O)(=O)NC(=O)Nc1nc(C)nc(OC)n1 .
output: 13.9

input: Give a short answer stating reported LC retention time for CN1C2CC(OC(=O)C(CO)c3ccccc3)CC1C1OC12 (configuration not stated) .
output: 16.4

input: Give a short answer stating reported LC retention time for COP(=S)(OC)Oc1ccc(S(C)=O)c(C)c1 (configuration not stated) .
output: 22.2

input: Give a short answer stating reported LC retention time for CCCCc1c(C)nc(N(C)C)[nH]c1=O .
output: 23.4

input: Give a short answer stating reported LC retention time for CNC(=O)Oc1cccc2c1OC(C)(C)C2 .
output: 21.4

input: Give a short answer stating reported LC retention time for CC(Oc1ccc2ccccc2c1)C(=O)Nc1ccccc1 (configuration not stated) .
output: 28.8

input: Give a short answer stating reported LC retention time for CCOC(=O)NCCOc1ccc(Oc2ccccc2)cc1 .
output: 28.8

input: Give a short answer stating reported LC retention time for CC(=O)CC(c1ccccc1)c1c(O)c2ccccc2oc1=O (configuration not stated) .
output: 19.1

input: Give a short answer stating reported LC retention time for [2H]C([2H])([2H])Oc1cc(NS(=O)(=O)c2ccc(N)cc2)nc(OC([2H])([2H])[2H])n1 .
output: 15.1

input: Give a short answer stating reported LC retention time for COc1cc(NS(=O)(=O)c2ccc(N)cc2)nc(OC)n1 .
output: 15.5
